Hey, just so you know, these numbers are from ChEMBL document CHEMBL5303304.

Test system: HEK-293T
Experiment: Incucyte cell viability with HEK293T; also: unitless GR value; below 1 slowed growth and below 0 cell loss
Assay type: toxicity, cell-based
Assay conditions: human, 12 h, 10 µM, compound concentration 10 uM, replicate number 1
Reported property: Growth Rate
A bare number is all that is needed in reply.

- Compound: "O=C1CSC(=O)N1C(CCc1ccncc1)COc1ccc(-c2cccc([N+](=O)[O-])c2)cc1 (centres undefined)"
  Target desc: "HEK-293T"
  Growth Rate: 0.24
- Compound: "CC(C)CC(=O)Nc1cncc(-c2ccc3[nH]nc(-c4nc5c(-c6cccc(F)c6)cncc5[nH]4)c3c2)c1 [LORECIVIVINT]"
  Target desc: "HEK-293T"
  Growth Rate: -0.89
- Compound: "CS(=O)(=O)c1ccc(-c2cnc(N)c(C(=O)Nc3ccccc3)n2)cc1"
  Target desc: "HEK-293T"
  Growth Rate: -0.15
- Compound: "CN(C)CCC[C@@]1(c2ccc(F)cc2)OCc2cc(C#N)ccc21 [ESCITALOPRAM]"
  Target desc: "HEK-293T"
  Growth Rate: 0.84
- Compound: "COc1cc(C(=O)NC2CCN(C)CC2)ccc1Nc1ncc(C(F)(F)F)c(NCc2ccc(C)cc2N(C)S(C)(=O)=O)n1.O=CO.O=CO"
  Target desc: "HEK-293T"
  Growth Rate: -0.63
- Compound: "CCc1ccc(N(CC(C)C)S(=O)(=O)c2ccc(OCC3CCOCC3)c(CO)c2)cc1 [GSK2981278]"
  Target desc: "HEK-293T"
  Growth Rate: 0.83
- Compound: "CC(C)(C)OC(=O)CN1C(=O)c2c(OCC(=O)O)cccc2Oc2ccc(C(F)(F)F)cc21"
  Target desc: "HEK-293T"
  Growth Rate: 0.61
- Compound: "Cl.NC(=O)c1ccccc1Nc1nc(-c2ccc(N3CCOCC3)cc2)cc2ncccc12"
  Target desc: "HEK-293T"
  Growth Rate: -0.4

What the record says about COc1ccccc1N1CCN(c2ncnc3c2cnn3-c2ccccc2)CC1 : Growth Rate is 0.99

Quick note, Growth Rate for CCOc1ccccc1C(=O)NCC1(N2CCN(CC)CC2)CCCCC1 landed at -0.11

Growth Rate measured on CNc1nc(Nc2ccc(C(=O)N3CCOCC3)cc2OC)nc2[nH]cc(Cl)c12 = 0.06
